- System tested: T1, human GIP receptor (human, UniProt P48546 22-466)
- T1 sequence (looked up): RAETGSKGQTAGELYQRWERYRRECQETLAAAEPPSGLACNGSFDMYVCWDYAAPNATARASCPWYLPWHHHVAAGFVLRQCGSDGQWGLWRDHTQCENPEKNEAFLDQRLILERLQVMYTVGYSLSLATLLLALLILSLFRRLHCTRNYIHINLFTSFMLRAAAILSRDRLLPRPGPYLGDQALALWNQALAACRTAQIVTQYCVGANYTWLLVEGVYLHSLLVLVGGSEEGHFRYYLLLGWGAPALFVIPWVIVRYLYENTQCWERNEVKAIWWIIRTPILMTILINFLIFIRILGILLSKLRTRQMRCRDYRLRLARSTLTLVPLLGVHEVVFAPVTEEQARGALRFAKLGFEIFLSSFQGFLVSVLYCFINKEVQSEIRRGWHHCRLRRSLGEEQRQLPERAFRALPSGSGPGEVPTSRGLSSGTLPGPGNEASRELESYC
- Measurement description: cell-based or functional assay
Bridge positions count the residues as written; N and C are the ends. Square brackets hold non-standard residues; d marks the D form. Ends that are not written are not given here. * marks the point of attachment. Acetyl(2-(4-imidazolyl)) = O=C(Cc1c[nH]cn1)*; Aib = CC(C)(N)C(=O)O
Recorded metric: In vitro activity (%) compared with native peptide, vs GIP
One number for each entry, in %.

Some entries whose results are on file:
Binder: H[Aib]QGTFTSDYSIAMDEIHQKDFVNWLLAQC (bridge 16-20; not fully specified) [triple agonist of SEQ ID NO: 55]
Quantity unit: %
Assay result: 2.4
--
Binder: Y[Aib]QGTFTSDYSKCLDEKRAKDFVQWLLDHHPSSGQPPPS (bridge 16-20) [triple agonist of SEQ ID NO: 70]
Quantity unit: %
Assay result: 64.4
--
Binder: Y[Aib]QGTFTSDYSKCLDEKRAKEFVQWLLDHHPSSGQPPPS (bridge 16-20) [triple agonist of SEQ ID NO: 22]
Quantity unit: %
Assay result: 59.7
--
Binder: [Acetyl(2-(4-imidazolyl))][Aib]QGTFTSDYSICMDEIHQKDFVNWLLNTK (bridge 16-20) [triple agonist of SEQ ID NO: 49]
Quantity unit: %
Assay result: 3.3

Challenge: Entry Y[Aib]QGTFTSDYSKALDEKAAKEFVQWLLDQHPSSGQPPPSC (bridge 16-20) [triple agonist of SEQ ID NO: 100] : reported In vitro activity (%) compared with native peptide, vs GIP = ?
Response given: 118
